All values here come from patent US20240116985A1.

Target: T1, B-cat-Halo (beta-catenin HaloTag NanoBRET construct expressed in HEK293 cells) (UniProt P35222 1-781, HaloTag NanoBRET 618 Ligand bound to the HaloTag)
T1 sequence (looked up): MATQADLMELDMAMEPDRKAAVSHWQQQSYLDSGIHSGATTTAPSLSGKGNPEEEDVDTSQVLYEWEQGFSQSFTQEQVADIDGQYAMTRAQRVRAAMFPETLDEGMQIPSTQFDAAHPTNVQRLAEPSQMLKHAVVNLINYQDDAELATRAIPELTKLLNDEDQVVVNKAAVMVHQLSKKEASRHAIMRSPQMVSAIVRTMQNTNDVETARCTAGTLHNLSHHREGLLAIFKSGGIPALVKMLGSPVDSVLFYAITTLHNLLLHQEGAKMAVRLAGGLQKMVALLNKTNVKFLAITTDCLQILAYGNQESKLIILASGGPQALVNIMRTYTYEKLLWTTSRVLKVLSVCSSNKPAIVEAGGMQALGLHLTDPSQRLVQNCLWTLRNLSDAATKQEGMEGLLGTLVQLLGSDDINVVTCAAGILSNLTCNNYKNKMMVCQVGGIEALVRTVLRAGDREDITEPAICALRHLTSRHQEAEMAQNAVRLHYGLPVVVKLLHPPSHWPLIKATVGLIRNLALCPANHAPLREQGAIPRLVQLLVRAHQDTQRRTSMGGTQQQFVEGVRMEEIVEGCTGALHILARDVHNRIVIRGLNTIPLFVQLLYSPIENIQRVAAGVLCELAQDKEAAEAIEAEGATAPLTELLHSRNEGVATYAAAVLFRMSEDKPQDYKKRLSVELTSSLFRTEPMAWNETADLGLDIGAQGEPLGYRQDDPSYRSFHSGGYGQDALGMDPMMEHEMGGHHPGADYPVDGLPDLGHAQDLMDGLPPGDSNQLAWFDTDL
Assay: cell-based or functional assay
Starred links: 1 amine or outer side, 2 acyl side, 3 side chain; linkers in the order of their positions; H or OH if unused. Positions of bridges follow the written chain, without caps; N, C: chain ends. Non-standard residues stand in square brackets, D forms with d. Primed or numbered codes have the meaning given here. B5(15) = 2-amino-2-(pent-4-en-1-yl)hept-6-enoic acid (2,2-bis(4-pentenyl)glycine), stitching residue bearing two staples, C=CCCCC(CCCC=C)(N[*:1])C(=O)[*:2]; B5(5) = 2,2-bis(4-pentenyl)glycine, 2-amino-2-(pent-4-en-1-yl)hept-6-enoic acid (stitching residue), C=CCCCC(CCCC=C)(N[*:1])C(=O)[*:2]; Bta = N[C@@H](Cc1csc2ccccc12)C(=O)O; αAllylPro = C=CC[C@@]1(C(=O)O)CCCN1; 3Thi = N[C@@H](Cc1ccsc1)C(=O)O; Cha = N[C@@H](CC1CCCCC1)C(=O)O; S8 = C=CCCCCCC[C@](C)(N)C(=O)O; PyrS2(4) = not defined here; hSer = N[C@@H](CCO)C(=O)O; Nle = CCCC[C@H](N)C(=O)O
NanoBRET Abs IC50 reference
Write the number in µM without appending the unit.

Q: Sample Ac-[αAllylPro]D[Cha][B5(5)]DDAAFL[PyrS2(4)][3Thi][Bta][hSer]-NH2 (staple 1-4, 4-11; not fully specified; printed as I-1520: Ac-PL3-Asp-Cha-B5-Asp-Asp-Ala-Ala-Phe-Leu-PyrS2-3Thi-BztA-Hse-NH2; reading uncertain) [I-1520: Ac-PL3-Asp-Cha-B5-Asp-Asp-Ala-Ala-Phe-Leu-PyrS2-3Thi-BztA-Hse-NH2] — what was its NanoBRET Abs IC50?
Result: 17.4

Q: Okay, and Ac-[αAllylPro]DS[B5(15)]DEAAF[hSer][S8]F[Bta]Q-NH2 (staple 1-4, 4-11; not fully specified; printed as Ac-PL3-Asp-Ser-B5-Asp-Glu-Ala-Ala-Phe-Hse-S8-Phe-BztA-Gln-NH2, Stapled peptide composition; It has the same description as I-1529 and is the staple isomer composition of the later eluting HPLC peak) [I-1530: Ac-PL3-Asp-Ser-B5-Asp-Glu-Ala-Ala-Phe-Hse-S8-Phe-BztA-Gln-NH2] ?
Result: 36.9

Q: // query: Ac-[αAllylPro]D[Nle][B5(5)]DEAAF[hSer][S8]F[Bta]Q-NH2 (staple 1-4, 4-11; also: staple isomer, earlier eluting HPLC peak) [I-1524: Ac-PL3-Asp-nLeu-B5-Asp-Glu-Ala-Ala-Phe-Hse-S8-Phe-BztA-Gln-NH2]
Result: 8.1

Q: One more binder: Ac-[αAllylPro]D[Nle][B5(5)]DEAAFQ[S8]F[Bta]Q-NH2 (staple 1-4, 4-11) [I-1522: Ac-PL3-Asp-nLeu-B5-Asp-Glu-Ala-Ala-Phe-Gln-S8-Phe-BztA-Gln-NH2]
Result: 5.8
